Target: STK33 (human) (UniProt Q9BYT3)
Sequence (Q9BYT3 whole entry, looked up): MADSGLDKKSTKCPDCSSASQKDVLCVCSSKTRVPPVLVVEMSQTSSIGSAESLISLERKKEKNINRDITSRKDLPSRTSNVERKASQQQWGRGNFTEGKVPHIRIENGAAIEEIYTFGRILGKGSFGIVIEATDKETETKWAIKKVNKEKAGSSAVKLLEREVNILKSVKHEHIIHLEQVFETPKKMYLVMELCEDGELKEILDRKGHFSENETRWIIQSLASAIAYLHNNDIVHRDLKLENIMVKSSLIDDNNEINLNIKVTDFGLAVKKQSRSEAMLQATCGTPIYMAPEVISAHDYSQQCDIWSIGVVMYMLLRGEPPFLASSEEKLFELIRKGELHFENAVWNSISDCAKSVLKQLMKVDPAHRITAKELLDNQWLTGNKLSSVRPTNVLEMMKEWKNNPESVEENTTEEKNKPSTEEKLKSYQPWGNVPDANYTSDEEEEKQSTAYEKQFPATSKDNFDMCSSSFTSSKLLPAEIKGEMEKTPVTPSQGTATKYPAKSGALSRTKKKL
Assay: radiometric filter-binding kinase assay, Kinase HotSpot
Conditions: compound 0.5 µM; ATP 10 µM
# note: boundary value 70% maps to 0; residual activity below it maps to 1

Some solved entries appear below for comparison.
{"recordSmiles": "Clc1ccc(Nc2nnc(Cc3ccncc3)c3ccccc23)cc1", "discreteLabel": 0}
{"recordSmiles": "CCOc1nc(NC(=O)Cc2cc(OC)ccc2OC)cc(N)c1C#N", "discreteLabel": 0}
{"recordSmiles": "CCN1/C(=C/C(C)=O)Sc2ccc(OC)cc21", "discreteLabel": 1}
{"recordSmiles": "COc1cc2ncnc(Nc3ccc(F)c(Cl)c3)c2cc1OCCCN1CCOCC1", "discreteLabel": 0}
{"recordSmiles": "Nc1nc(Nc2ccc(S(N)(=O)=O)cc2)nn1C(=O)c1c(F)cccc1F", "discreteLabel": 0}

In plain terms, does `O=C1Nc2ccccc2/C1=C\c1c(Cl)[nH]c2ccccc12` come in under 70% for residual activity?
0

In plain terms, does `Cc1cc(Nc2cc(N3CCN(C)CC3)nc(Sc3ccc(NC(=O)C4CC4)cc3)n2)[nH]n1` come in under 70% for residual activity?
0

In plain terms, does `CC(C)(C)c1nc2c3ccc(F)cc3c3c(=O)[nH]ccc3c2[nH]1` come in under 70% for residual activity?
1

In plain terms, does `O=c1cc(N2CCNCC2)oc2c(-c3ccccc3)cccc12` come in under 70% for residual activity?
0

---

Molecular target: PRKCZ (human) (UniProt Q05513)
Sequence (Q05513 whole entry, looked up): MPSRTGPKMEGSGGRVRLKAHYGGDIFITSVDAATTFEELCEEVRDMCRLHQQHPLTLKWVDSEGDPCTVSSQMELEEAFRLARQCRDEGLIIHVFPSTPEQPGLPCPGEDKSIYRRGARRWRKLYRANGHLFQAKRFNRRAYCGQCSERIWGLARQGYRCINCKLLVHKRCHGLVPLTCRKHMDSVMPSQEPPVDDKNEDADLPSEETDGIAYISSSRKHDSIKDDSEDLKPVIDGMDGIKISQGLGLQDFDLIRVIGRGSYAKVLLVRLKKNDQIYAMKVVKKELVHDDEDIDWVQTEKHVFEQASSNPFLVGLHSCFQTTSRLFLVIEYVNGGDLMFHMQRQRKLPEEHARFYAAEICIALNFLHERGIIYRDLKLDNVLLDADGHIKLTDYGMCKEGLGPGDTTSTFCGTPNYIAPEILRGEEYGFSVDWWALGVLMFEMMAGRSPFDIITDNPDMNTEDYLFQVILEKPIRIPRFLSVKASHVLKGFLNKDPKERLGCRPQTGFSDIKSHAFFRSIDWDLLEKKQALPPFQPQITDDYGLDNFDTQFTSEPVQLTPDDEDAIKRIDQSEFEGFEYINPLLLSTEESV
Assay: radiometric filter-binding kinase assay, Kinase HotSpot
Conditions: compound 0.5 µM; ATP 10 µM
quantity: residual activity (%)
Quick note: give the figure in %, leave out the unit.

Here are 2 compounds together with their reported answers.
{"compound": "CC(C)n1cnc2c(Nc3cccc(Cl)c3)nc(NCCO)nc21", "systemUnderTest": "PRKCZ (human) (UniProt Q05513)", "residual activity (%)": 97.8}
{"compound": "CS(=O)c1ccc(-c2nc(-c3ccc(F)cc3)c(-c3ccncc3)[nH]2)cc1 (stereo not given)", "systemUnderTest": "PRKCZ (human) (UniProt Q05513)", "residual activity (%)": 103}

For the compound O=C(NC(NC(=S)Nc1ccc(F)c([N+](=O)[O-])c1)C(Cl)(Cl)Cl)C(c1ccccc1)c1ccccc1 (stereo not given) , report residual activity.
98

For the compound `Nc1n[nH]c2nnc(-c3c(-c4ccccc4)nn4ccccc34)cc12` , report residual activity.
83.9

For the compound `Clc1ccc(Nc2nnc(Cc3ccncc3)c3ccccc23)cc1` , report residual activity.
69.5

For the compound `COc1cc2nccc(Oc3ccc(NC(=S)NC(=O)c4ccccc4C)cc3)c2cc1OC` , report residual activity.
96.9

For the compound `Oc1ccc(-c2nc(-c3ccc(F)cc3)c(-c3ccncc3)[nH]2)cc1` , report residual activity.
109

For the compound `Cc1ccc(NC(=O)c2ccc(CN3CCN(C)CC3)cc2)cc1Nc1nc(-c2cccnc2)cs1` , report residual activity.
103

For the compound `O=C1Cc2c([nH]c3ccc([N+](=O)[O-])cc23)-c2ccccc2N1` , report residual activity.
109

For the compound `CC(C)(C)c1nc2c3ccc(F)cc3c3c(=O)[nH]ccc3c2[nH]1` , report residual activity.
93.2

---

Catalogue of residual activity readings, one per entry.
Molecular target: BLK (human)
Test: radiometric filter-binding kinase assay, Kinase HotSpot
Conditions: compound 0.5 µM; ATP 10 µM
Quick note: give the figure in %, leave out the unit.

For the molecule O=C(NC(NC(=S)Nc1ccc(F)c([N+](=O)[O-])c1)C(Cl)(Cl)Cl)C(c1ccccc1)c1ccccc1 (stereo not given) , report residual activity.
110
